# System: primary human total T-cells
# assayText: T-cell activation assessed by cytokine secretion (GM-CSF, IFNγ, TNFα)
# Format: cell-based
# conditionDescription: CD3/CD28 stimulation, 10 μM, read-out: TNFα secretion
quantity: fold induction at 10 µM

>>> result("Cn1cnnc1CC1(c2cccc(N3Cc4c(cc(CN5CC[C@H](C#N)C5)cc4C(F)(F)F)C3=O)c2)COC1")
"2.01 to 4"
>>> result("C[C@H](Cc1nncn1C)c1cccc(N2Cc3c(ccnc3C3CC3)C2=O)c1")
"2.01 to 4"
>>> result("C[C@H](Cc1nncn1C)c1cccc(NC(=O)c2n[nH]c3c2CCC3)c1")
"2.01 to 4"
>>> result("C[C@@H](c1cc2c(c(C(F)(F)F)c1)CN(c1cccc(C3(Cc4nncn4C)COC3)c1)C2=O)N1CC[C@H](F)C1")
"> 4"

Query: Requested field: fold induction at 10 µM. Item: Cc1cc2c(c(C3CC3)n1)CN(c1cccc([C@H](C)Cc3nncn3C)c1)C2=O
Reply: 2.01 to 4

---

Assay system Cbl-b (residues 36-427) (Homo sapiens); read-out recorded as Kd.

Solved cases below.
>>> result("C[C@H](Cc1nccn1C)c1cccc(NC(=O)c2cc(C(=O)N3CC[C@H](O)C3)ccn2)c1 [Compound 252a]")
"3 to 10 µM"
>>> result("C[C@H](Cc1nncn1C)c1ccnc(NC(=O)c2cccc(C(F)(F)F)n2)c1")
"1 to 3 µM"
>>> result("C[C@H](Cc1nncn1C)c1cccc(NC(=O)c2cc(C(=O)N3C[C@H](O)[C@@H](F)C3)ccn2)c1")
"3 to 10 µM"
>>> result("CCOc1cc([C@H](C)Cc2nncn2C)cc(N2Cc3c(cccc3C(F)(F)F)C2=O)n1")
"< 0.1 µM"
>>> result("Cc1cc(C(=O)Nc2cccc([C@H](C)Cc3nocc3C)c2)nc(C2CC2)n1")
"0.301 to 1 µM"

Query: Form field: Kd recorded for C[C@H](Sc1nncn1C)c1ccnc(NC(=O)c2ccc3c(n2)CCCC3)c1 with Cbl-b (residues 36-427) (Homo sapiens) (enter value)
Reply: 3 to 10 µM

Query: # iterate: C[C@H](Sc1nncn1C)c1ccc(F)c(N2Cc3c(cccc3C(F)(F)F)C2=O)c1
Reply: 1 to 3 µM

Query: And C[C@H](Cc1nncn1C)c1cccc(N2Cc3c(cc(C(=O)N4CC[C@H](O)C4)cc3C(F)(F)F)C2=O)c1 ?
Reply: < 0.1 µM

---

Catalogue of compounds with associated fold induction at 1 µM
# System: T-cell
# assayText: IL-2 secretion from T-cells stimulated with anti-CD3 antibody alone (Biological Example 2)
# Type: cell-based
# conditionDescription: 1 μM compound, primary human total T-cells, read-out: IL-2 secretion, Anti-CD3 stimulation, fold change over baseline

Please review the entries below; each comes with its answer.
>>> result("Cn1cnnc1C(F)(F)[C@](C)(F)c1cccc(N2Cc3c(cc(CN4C[C@@H](F)[C@@H](F)C4)cc3C(F)(F)F)C2=O)c1")
"0.151 to 0.2"
>>> result("C[C@H](Cc1nncn1C)c1cccc(N2Cc3c(cc(CN4CC(O)C(F)(F)C4)cc3C(F)(F)F)C2=O)c1 (stereo partly shown)")
"0.101 to 0.15"
>>> result("C[C@H](Cc1nncn1C)c1cccc(N2Cc3c(cc(C(C)(C)O)cc3C(F)(F)F)C2=O)c1")
"0.151 to 0.2"
>>> result("Cn1cnnc1C(F)[C@](C)(F)c1cccc(N2Cc3c(cccc3C(F)(F)F)C2=O)c1 (stereo in doubt) [Compound 478a]")
"< 0.05"
>>> result("Cn1cnnc1CC1(c2cccc(N3Cc4c(cc(CN5CCC6(CC6)C5)cc4C(F)(F)F)C3=O)c2)COC1")
"> 0.201"

Query: Item under review: Cn1cnnc1CC1(c2cccc(N3Cc4c(cc(CN5CC(C)(C#N)C5)cc4C(F)(F)F)C3=O)c2)COC1 . Reported fold induction at 1 µM?
Reply: 0.151 to 0.2

Query: Now try C[C@@H](c1cc2c(c(C(F)(F)F)c1)CN(c1cccc(C3(Cc4nncn4C)COC3)c1)C2=O)N1CC[C@H](F)C1 .
Reply: > 0.201

The values you see were collected from patent US20220324835A1.
